# Target under test: Aldehyde dehydrogenase 1A1 (Homo sapiens) (UniProt P00352)
# Sequence (P00352 whole entry, looked up): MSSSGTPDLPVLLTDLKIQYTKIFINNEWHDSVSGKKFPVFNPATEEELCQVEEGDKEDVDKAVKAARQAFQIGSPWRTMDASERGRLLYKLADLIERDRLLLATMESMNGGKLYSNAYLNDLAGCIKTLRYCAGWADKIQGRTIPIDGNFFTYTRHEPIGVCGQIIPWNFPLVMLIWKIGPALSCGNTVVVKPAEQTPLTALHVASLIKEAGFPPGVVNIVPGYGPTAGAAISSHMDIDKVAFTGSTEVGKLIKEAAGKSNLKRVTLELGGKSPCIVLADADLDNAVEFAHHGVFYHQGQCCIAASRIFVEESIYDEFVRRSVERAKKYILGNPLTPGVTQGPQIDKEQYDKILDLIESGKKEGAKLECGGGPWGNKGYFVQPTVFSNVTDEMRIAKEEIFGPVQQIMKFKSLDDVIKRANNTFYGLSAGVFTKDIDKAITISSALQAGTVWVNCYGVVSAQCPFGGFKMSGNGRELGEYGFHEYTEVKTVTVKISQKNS
# Method description: qHTS Assay for Inhibitors of Aldehyde Dehydrogenase 1 (ALDH1A1)
# Condition parameters: Purified ALDH1A1, NADH fluorescence, propionaldehyde substrate; series mostly up to 75.3 µM
The whole screen tested about 220,000 compounds, of which about 16,000 (7.3%) were called active. Not shown: some 25% with an inconclusive outcome. The call rests on the fitted dose curve; in most records, active means well fitted inhibition curve with a large enough effect (not every such curve was filed as active); inconclusive means small, poorly fitted or top-dose-only effect, or another doubt; inactive means no such curve, though single readings can be large or run the other way. For the sample, actives were picked, then their nearest neighbours and some compounds at random.
Your response should consist of one outcome taken from 1 for active, -1 for inactive

Compound	Answer label
COc1ccc(CCNCC(O)Cn2ccc3ccccc32)cc1OC (stereo not given)	-1
CCCC(=O)OCC(=O)Nc1cc(Cl)ccc1[N+](=O)[O-]	-1
Cn1c(=N)n(CC(O)c2cccs2)c2ccccc21 (stereo not given)	-1
COc1cccc(-c2nc3n(n2)C(c2ccccc2Cl)C(C(N)=O)=C(C)N3)c1 (stereo not given)	-1

Moving on to the next compound.
Fill in: this test's call for Cc1ccc(Cl)cc1NC(=O)COC(=O)CC(C)(C)C is ___ 1

----------
# Target under test: Aldehyde dehydrogenase 1A1 (Homo sapiens) (UniProt P00352)
# Method description: qHTS Assay for Inhibitors of Aldehyde Dehydrogenase 1 (ALDH1A1)
# Condition parameters: Purified ALDH1A1, NADH fluorescence, propionaldehyde substrate; series mostly up to 75.3 µM
The whole screen tested about 220,000 compounds, of which about 16,000 (7.3%) were called active. Roughly 25% stayed inconclusive and do not appear here. Calls come from the whole dose curve; as a rule, active = well fitted inhibition curve with a large enough effect (not every such curve was filed as active); inconclusive = small, poorly fitted or top-dose-only effect, or another doubt; inactive = no such curve, though single readings can be large or run the other way. What follows is part of a selection rich in actives, with near analogues and random picks from the rest.
Your response should consist of one outcome taken from TRUE (active), FALSE (inactive)

See these solved cases before continuing.
Compound	Answer label
CCn1c2ccccc2c2cc(NC(=O)CNC)ccc21	TRUE
CCn1cnc2scc(-c3ccc(C)c(C)c3)c2c1=O	FALSE

Fill in: this test's call for COC(=O)CN(C(=S)Nc1ccc(Cl)cc1)C1CC(=O)N(c2ccc(OC)cc2)C1=O (stereo unspecified) is ___ FALSE

Then what about the compound O=C(OCc1ccc([N+](=O)[O-])cc1)c1ccccn1 ? FALSE

Then what about the compound Cc1ccc(NC(=O)c2csc3c2CCCC3)cc1 ? TRUE

Then what about the compound COC(=O)c1sccc1NC(=O)CCC1CCCC1 ? FALSE

Then what about the compound CC(=O)Cc1nsc(NC(=O)c2csc3c2CCCC3)n1 ? FALSE

Then what about the compound O=C(CCN1CCN(c2ccccc2)CC1)NNC(=S)Nc1ccccc1 ? FALSE

Then what about the compound Oc1c(CN2CCN(c3ccc(F)cc3)CC2)cc(Cl)c2cccnc12 ? FALSE

Then what about the compound O=C(Nc1ccccc1C(F)(F)F)N1CCCC1c1cccnc1 (stereo unspecified) ? FALSE

----------
# Target under test: Aldehyde dehydrogenase 1A1 (Homo sapiens) (UniProt P00352)
# Method description: qHTS Assay for Inhibitors of Aldehyde Dehydrogenase 1 (ALDH1A1)
# Condition parameters: Purified ALDH1A1, NADH fluorescence, propionaldehyde substrate; series mostly up to 75.3 µM
In all, about 220,000 compounds went through this assay and about 16,000 (7.3%) were called active. Inconclusive results (about 25%) are left out. The call rests on the fitted dose curve; in most records, active means well fitted inhibition curve with a large enough effect (not every such curve was filed as active); inconclusive means small, poorly fitted or top-dose-only effect, or another doubt; inactive means no such curve, though single readings can be large or run the other way. What follows is part of a selection rich in actives, with near analogues and random picks from the rest.
Your response should consist of one outcome taken from active, inactive

Molecule	Answer label
N#Cc1cnn2cc(CCN3CCOCC3)c(-c3ccc(F)cc3)nc12	inactive

Fill in: this test's call for CN1CCN(c2nc3c(c(=O)[nH]c(=O)n3C)n2Cc2cccc3ccccc23)CC1 is ___ active

Then what about the molecule O=C(Cc1ccc(F)cc1)N/N=C/c1ccc2c(c1)OCO2 ? inactive

Then what about the molecule CCOCC(=O)Nc1cc(OC)c(Cl)cc1OC ? inactive

Then what about the molecule O=C1CCC/C(=N\NC(=O)NC2CCCCC2)C1 ? inactive

Then what about the molecule FC(F)(F)c1ccnc(Oc2ccc(C3=NCCS3)cc2)c1 ? inactive

Then what about the molecule Cc1ccnc(SCCn2c(Br)nc3c2c(=O)[nH]c(=O)n3C)n1 ? inactive

Then what about the molecule C=CCO/N=C/C1=C(O)C(C(=O)OC)C(C)(C)CC1=O (stereo not given) ? inactive

Then what about the molecule Cc1c(C=O)n(C)n(-c2ccccc2)c1=O ? inactive

Then what about the molecule CCOc1ccc(N2CC(C(=O)NCCN3C(=O)S/C(=C\c4cccnc4)C3=O)CC2=O)cc1 (stereo not given) ? inactive

Then what about the molecule O=C(/C=C/c1ccccc1)Oc1coc(CSc2ncccn2)cc1=O ? inactive

Then what about the molecule CC(C)CC(=O)NC(=S)Nc1cc(C(=O)O)ccc1Cl ? inactive

Then what about the molecule CCOC(=O)N1CCC(=NNC(N)=O)CC1 ? inactive

Then what about the molecule Cn1c(=O)[nH]c(=O)c2c1nc(NCCCn1ccnc1)n2Cc1cccc(Br)c1 ? inactive

Then what about the molecule CCOC(=O)c1ccc(-c2ccc(C(=O)Nc3cccnc3)o2)cc1 ? active

Then what about the molecule C=C(C)Cn1c(N2CCN(CC)CC2)nc2c1c(=O)[nH]c(=O)n2C ? inactive

----------
# Target under test: Aldehyde dehydrogenase 1A1 (Homo sapiens) (UniProt P00352)
# Method description: qHTS Assay for Inhibitors of Aldehyde Dehydrogenase 1 (ALDH1A1)
# Condition parameters: Purified ALDH1A1, NADH fluorescence, propionaldehyde substrate; series mostly up to 75.3 µM
Out of some 220,000 compounds screened, about 16,000 (7.3%) were called active. Roughly 25% stayed inconclusive and do not appear here. Calls follow the shape of the dose curve; as a rule, active = well fitted inhibition curve with a large enough effect (not every such curve was filed as active); inconclusive = small, poorly fitted or top-dose-only effect, or another doubt; inactive = no such curve, though single readings can be large or run the other way. Many of the other results were omitted from the sample, so actives are more common in it than they were.
Your response should consist of one outcome taken from active, inactive

See these solved cases before continuing.
Compound	Target under test	Answer label
CC(=O)NCCn1c(SCC(=O)Nc2ccc(C)cc2)nc2ccccc2c1=O	Aldehyde dehydrogenase 1A1 (Homo sapiens) (UniProt P00352)	inactive
O=c1[nH]c2c(c(=O)n1Cc1ccccc1)CCC2	Aldehyde dehydrogenase 1A1 (Homo sapiens) (UniProt P00352)	inactive
COc1ccc(-n2c(SCC(=O)Nc3sc4c(c3C#N)CCCC4)nnc2-c2ccc(O)cc2)cc1	Aldehyde dehydrogenase 1A1 (Homo sapiens) (UniProt P00352)	inactive

Fill in: this test's call for COc1ccc(C(=S)Nc2ccccc2)cc1 is ___ inactive

Then what about the compound O=C(Nc1cccc(CCc2ccccn2)c1)c1ccc(Cl)cc1 ? inactive

Then what about the compound CCOc1ccc(CN(Cc2ccco2)C(c2cccs2)c2nnnn2C(C)(C)C)cc1 (stereo not drawn) ? inactive

----------
# Target under test: Aldehyde dehydrogenase 1A1 (Homo sapiens) (UniProt P00352)
# Method description: qHTS Assay for Inhibitors of Aldehyde Dehydrogenase 1 (ALDH1A1)
# Condition parameters: Purified ALDH1A1, NADH fluorescence, propionaldehyde substrate; series mostly up to 75.3 µM
The whole screen tested about 220,000 compounds, of which about 16,000 (7.3%) were called active. Not shown: some 25% with an inconclusive outcome. Calls follow the shape of the dose curve; as a rule, active = well fitted inhibition curve with a large enough effect (not every such curve was filed as active); inconclusive = small, poorly fitted or top-dose-only effect, or another doubt; inactive = no such curve, though single readings can be large or run the other way. The full list was thinned out, with actives kept by preference.
Your response should consist of one outcome taken from active, inactive

Compound	Answer label
Fc1cc(F)c2nc(N3CCOCC3)sc2c1	inactive
Cc1nn(C)c(C)c1Sc1ccccc1N	inactive
CC(=O)Nc1ccc(C(=O)OCC(=O)Nc2ccc([N+](=O)[O-])cc2C(F)(F)F)cc1	inactive

Moving on to the next compound.
Fill in: this test's call for CCOc1ccc2nc(C(=O)N3CCCC(C)C3)sc2c1 (centres undefined) is ___ active

----------
# Target under test: Aldehyde dehydrogenase 1A1 (Homo sapiens)
# Method description: qHTS Assay for Inhibitors of Aldehyde Dehydrogenase 1 (ALDH1A1)
# Condition parameters: Purified ALDH1A1, NADH fluorescence, propionaldehyde substrate; series mostly up to 75.3 µM
Screen size: about 220,000 compounds; about 16,000 (7.3%) were called active. About 25% were inconclusive and are not listed. This is one part of a sample in which actives are shown more often than they occur.

Mol	Target under test	outcome
O=C(O)C1CCN(C(=O)OCc2ccccc2)CC1	Aldehyde dehydrogenase 1A1 (Homo sapiens)	inactive
COC(=O)c1ccccc1NC(=O)CSc1nnnn1C	Aldehyde dehydrogenase 1A1 (Homo sapiens)	inactive
Cc1ccc(C)c(NC(=O)CCC(=O)N/N=C2/CC(=O)CC(C)(C)C2)c1	Aldehyde dehydrogenase 1A1 (Homo sapiens)	inactive

----------
# Target under test: Aldehyde dehydrogenase 1A1 (Homo sapiens) (UniProt P00352)
# Method description: qHTS Assay for Inhibitors of Aldehyde Dehydrogenase 1 (ALDH1A1)
# Condition parameters: Purified ALDH1A1, NADH fluorescence, propionaldehyde substrate; series mostly up to 75.3 µM
About 16,000 (7.3%) of roughly 220,000 compounds were called active. Not shown: some 25% with an inconclusive outcome. Calls come from the whole dose curve; as a rule, active = well fitted inhibition curve with a large enough effect (not every such curve was filed as active); inconclusive = small, poorly fitted or top-dose-only effect, or another doubt; inactive = no such curve, though single readings can be large or run the other way. The list comes from a sample in which actives are over-represented; it also holds close analogues and randomly drawn compounds.
Your response should consist of one outcome taken from t (active), f (inactive)

See these solved cases before continuing.
Mol	Target under test	Answer label
CN(C)CCCCCN(C)Cc1cc2ccccc2o1	Aldehyde dehydrogenase 1A1 (Homo sapiens) (UniProt P00352)	f
NC(=O)C1(N2CCCCC2)CCN(C(=O)c2ccc(C#Cc3ccccc3)o2)CC1	Aldehyde dehydrogenase 1A1 (Homo sapiens) (UniProt P00352)	f

Moving on to the next compound.
Fill in: this test's call for S=C(c1ccc(-c2ccccc2)o1)N1CCCCC1 is ___ t
